Just for reference, the Kinase Knowledgebase extract (Sharma et al. 2016) is where these values come from.

Target: PIK3CG (human)
Assay: Assessment of PIK3CG Kinase Activity
pIC50: −log10 of the molar value.
Readout kind: pIC50

Would you please look over these solved cases?
COc1cc2c(Oc3ccc(C4CCN(C(=O)C(C)(C)NC(=O)OC(C)(C)C)CC4)cc3)c(C(=O)Nc3nn[nH]n3)sc2cc1C | 7.70
COc1cc2sc(C(=O)Nc3nn[nH]n3)c(Oc3cccc(C(=N)N)c3)c2cc1C | 6.41
COc1cc2c(Oc3ccc(C4CCCC(O)C4)cc3)c(C(=O)Nc3nn[nH]n3)sc2cc1C (centres undefined) | 8.10

P: COc1cc2c(Oc3ccc(C4CCNCC4)cc3)c(C(=O)Nc3nn[nH]n3)sc2cc1C
Q: COc1cc2c(Oc3ccc(C4CCSCC4)cc3)c(C(=O)Nc3nn[nH]n3)sc2cc1C
R: COc1cc2c(Oc3ccc(C4CCN(C(C)=O)CC4)cc3)c(C(=O)Nc3nn[nH]n3)sc2cc1C
S: COc1cc2c(Oc3ccc(C(C)(C)C)c(C(C)(C)C)c3)c(C(=O)Nc3nn[nH]n3)sc2cc1C
Ask: Order the records so the highest pIC50 appears first and the lowest last. A complete answer lists every label in the requested sequence.
Result: Q, R, P, S
(Q: 8.10, R: 7.85, P: 6.44, S: 5.63)

A: COc1cc2c(Oc3ccc(C4CC(C)(C)CC(C)(C)C4)cc3)c(C(=O)Nc3nn[nH]n3)sc2cc1C
B: COc1cc2c(Oc3ccc(C(O)c4ccccc4)cc3)c(C(=O)Nc3nn[nH]n3)sc2cc1C (centres undefined)
Ask: Which gives the smaller pIC50 number: A or B ? Choose, then provide that item's label.
Result: A

---

Molecular target: PIK3CG (human)
Assay: Assessment of PIK3CG Kinase Activity
Readout kind: IC50 (nM)

Below are worked cases with known answers.
COc1cc2c(Oc3ccc(C4CCN(C(=O)C(C)C)CC4)cc3)c(C(=O)Nc3nn[nH]n3)sc2cc1C | 11
COc1cc2c(Oc3ccc(C4CCOCC4)cc3)c(C(=O)Nc3nn[nH]n3)sc2cc1C | 9
COc1cc2sc(C(=O)Nc3nnn[nH]3)c(OCc3ccc4ccccc4c3)c2cc1OC | 210

P: COc1cc2c(Oc3ccc(C(=O)c4ccccc4)cc3)c(C(=O)Nc3nn[nH]n3)sc2cc1C
Q: COc1cc2c(Oc3ccc(C(C4CCCCC4)N4CCCCC4)cc3)c(C(=O)Nc3nn[nH]n3)sc2cc1C (stereo not drawn)
Ask: Field: entry with larger IC50 (options P / Q ). Answer by quoting the chosen item's label.
Result: Q

---

Molecular target: PIK3CG (human)
Experiment: Assessment of PIK3CG Kinase Activity
Readout kind: IC50 (nM)

1: COc1cc2c(OC[C@H](C)c3ccccc3)c(C(=O)Nc3nn[nH]n3)sc2cc1C
2: COc1cc2sc(C(=O)Nc3nnn[nH]3)c(Oc3ccc(CCCSC4CCCCC4)cc3)c2cc1C
3: COc1cc2sc(C(=O)Nc3nnn[nH]3)c(Oc3ccc(CCCSc4ccc(Cl)cc4)cc3)c2cc1C
Ask: Ascending by IC50, please. Labels, ranked as asked.
Result: 1, 2, 3
(1: 56 nM, 2: 240 nM, 3: 2610 nM)
